The measurements presented in this section are drawn from paper PMC9632963.

Study System: AXL (Homo sapiens, UniProt P30530)
Sequence (P30530 26-894): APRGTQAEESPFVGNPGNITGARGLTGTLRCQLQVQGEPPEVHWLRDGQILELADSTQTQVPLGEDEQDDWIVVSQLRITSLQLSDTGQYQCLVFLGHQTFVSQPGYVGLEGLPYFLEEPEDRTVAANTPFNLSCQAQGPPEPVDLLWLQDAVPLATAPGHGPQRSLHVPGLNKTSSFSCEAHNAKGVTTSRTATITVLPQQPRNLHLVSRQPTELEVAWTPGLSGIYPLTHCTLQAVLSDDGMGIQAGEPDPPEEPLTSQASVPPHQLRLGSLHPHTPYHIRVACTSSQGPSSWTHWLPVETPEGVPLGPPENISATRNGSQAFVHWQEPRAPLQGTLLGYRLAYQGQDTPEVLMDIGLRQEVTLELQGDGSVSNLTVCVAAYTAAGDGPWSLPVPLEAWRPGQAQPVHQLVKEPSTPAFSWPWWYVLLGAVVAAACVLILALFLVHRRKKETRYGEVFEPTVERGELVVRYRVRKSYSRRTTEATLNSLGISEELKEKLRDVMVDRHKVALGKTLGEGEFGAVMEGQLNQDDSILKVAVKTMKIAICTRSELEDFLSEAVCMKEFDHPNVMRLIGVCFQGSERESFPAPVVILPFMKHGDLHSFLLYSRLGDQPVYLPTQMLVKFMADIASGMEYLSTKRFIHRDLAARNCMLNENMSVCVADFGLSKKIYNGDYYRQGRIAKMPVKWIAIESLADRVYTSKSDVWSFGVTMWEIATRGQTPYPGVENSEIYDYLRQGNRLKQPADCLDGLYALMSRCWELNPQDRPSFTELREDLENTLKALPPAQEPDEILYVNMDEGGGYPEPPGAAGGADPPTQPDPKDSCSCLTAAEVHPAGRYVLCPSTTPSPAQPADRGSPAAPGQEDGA
Procedure Summary: cell-based
Property Measured: IC50 (pM)
Note: unit pM is implicit; provide only the numeric part.

Value of measured IC50 for the entry Cc1c(C(=O)Nc2ccc(Oc3ccnc4cc(OCC(C)(C)O)ccc34)c(F)c2)c(=O)n(-c2ccccc2)n1C [CT053] : 440

###

Procedure Summary: Phase I trial: clinical pharmacokinetics in plasma
Format: in vivo, human
Measurement Context: human, plasma, po, single oral dose; read-out: mean half-life, range over cohorts
Property Measured: half-life

Value of measured half-life for the entry Cc1c(C(=O)Nc2ccc(Oc3ccnc4cc(OCC(C)(C)O)ccc34)c(F)c2)c(=O)n(-c2ccccc2)n1C [CT053PTSA] : 24.7 to 33.9 h

###

Study System: FLT4 (Homo sapiens)
Sequence (P35916 25-1363): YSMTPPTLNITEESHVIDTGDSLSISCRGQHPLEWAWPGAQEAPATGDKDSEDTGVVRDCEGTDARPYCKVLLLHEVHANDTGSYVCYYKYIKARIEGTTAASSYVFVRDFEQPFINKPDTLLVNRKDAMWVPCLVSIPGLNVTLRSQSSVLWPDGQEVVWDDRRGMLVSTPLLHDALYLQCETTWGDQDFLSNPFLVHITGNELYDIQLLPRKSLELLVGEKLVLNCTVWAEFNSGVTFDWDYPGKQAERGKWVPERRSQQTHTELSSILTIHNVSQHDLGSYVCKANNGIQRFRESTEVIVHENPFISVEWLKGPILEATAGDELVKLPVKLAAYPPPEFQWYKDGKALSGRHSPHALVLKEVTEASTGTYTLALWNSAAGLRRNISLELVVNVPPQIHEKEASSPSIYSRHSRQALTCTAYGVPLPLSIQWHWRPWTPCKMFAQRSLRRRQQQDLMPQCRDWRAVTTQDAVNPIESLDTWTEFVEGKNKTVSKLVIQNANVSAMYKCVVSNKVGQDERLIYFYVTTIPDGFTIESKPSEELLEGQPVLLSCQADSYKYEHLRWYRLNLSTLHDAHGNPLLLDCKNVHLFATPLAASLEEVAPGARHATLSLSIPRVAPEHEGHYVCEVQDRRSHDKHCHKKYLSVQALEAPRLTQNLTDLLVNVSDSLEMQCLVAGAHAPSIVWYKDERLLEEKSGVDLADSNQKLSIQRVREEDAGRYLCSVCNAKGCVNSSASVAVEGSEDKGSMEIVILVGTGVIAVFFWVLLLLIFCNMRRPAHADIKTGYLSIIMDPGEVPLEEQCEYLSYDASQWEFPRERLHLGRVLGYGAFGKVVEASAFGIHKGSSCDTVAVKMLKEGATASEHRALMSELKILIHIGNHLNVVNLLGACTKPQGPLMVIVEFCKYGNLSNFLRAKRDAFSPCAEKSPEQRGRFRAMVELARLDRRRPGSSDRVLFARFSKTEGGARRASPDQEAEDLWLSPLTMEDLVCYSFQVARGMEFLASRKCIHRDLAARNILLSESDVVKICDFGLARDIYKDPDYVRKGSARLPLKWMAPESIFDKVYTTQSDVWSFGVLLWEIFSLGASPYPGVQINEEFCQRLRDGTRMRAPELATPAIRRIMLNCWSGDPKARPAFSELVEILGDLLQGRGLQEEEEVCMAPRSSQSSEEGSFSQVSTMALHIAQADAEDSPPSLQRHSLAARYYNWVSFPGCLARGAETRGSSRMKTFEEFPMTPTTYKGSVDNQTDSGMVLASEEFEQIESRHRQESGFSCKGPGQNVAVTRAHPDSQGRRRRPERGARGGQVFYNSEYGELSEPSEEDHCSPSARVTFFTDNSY
Property Measured: IC50 (µM)
Note: unit µM is implicit; provide only the numeric part.

Query Cc1c(C(=O)Nc2ccc(Oc3ccnc4cc(OCC(C)(C)O)ccc34)c(F)c2)c(=O)n(-c2ccccc2)n1C on FLT4 (Homo sapiens); IC50 returned: 0.046

###

Procedure Summary: Phase I trial: clinical pharmacokinetics in plasma
Assay type: in vivo, human
Measurement Context: human, plasma, oral, 30 mg, Multiple doses day 28, 30 mg, n=1; read-out: Tmax
Property Measured: Tmax (h)
Note: unit h is implicit; provide only the numeric part.

Value of measured Tmax for the entry Cc1c(C(=O)Nc2ccc(Oc3ccnc4cc(OCC(C)(C)O)ccc34)c(F)c2)c(=O)n(-c2ccccc2)n1C [CT053PTSA] : 2

###

Study System: Fes (Homo sapiens, UniProt P07332)
Sequence (P07332 whole entry): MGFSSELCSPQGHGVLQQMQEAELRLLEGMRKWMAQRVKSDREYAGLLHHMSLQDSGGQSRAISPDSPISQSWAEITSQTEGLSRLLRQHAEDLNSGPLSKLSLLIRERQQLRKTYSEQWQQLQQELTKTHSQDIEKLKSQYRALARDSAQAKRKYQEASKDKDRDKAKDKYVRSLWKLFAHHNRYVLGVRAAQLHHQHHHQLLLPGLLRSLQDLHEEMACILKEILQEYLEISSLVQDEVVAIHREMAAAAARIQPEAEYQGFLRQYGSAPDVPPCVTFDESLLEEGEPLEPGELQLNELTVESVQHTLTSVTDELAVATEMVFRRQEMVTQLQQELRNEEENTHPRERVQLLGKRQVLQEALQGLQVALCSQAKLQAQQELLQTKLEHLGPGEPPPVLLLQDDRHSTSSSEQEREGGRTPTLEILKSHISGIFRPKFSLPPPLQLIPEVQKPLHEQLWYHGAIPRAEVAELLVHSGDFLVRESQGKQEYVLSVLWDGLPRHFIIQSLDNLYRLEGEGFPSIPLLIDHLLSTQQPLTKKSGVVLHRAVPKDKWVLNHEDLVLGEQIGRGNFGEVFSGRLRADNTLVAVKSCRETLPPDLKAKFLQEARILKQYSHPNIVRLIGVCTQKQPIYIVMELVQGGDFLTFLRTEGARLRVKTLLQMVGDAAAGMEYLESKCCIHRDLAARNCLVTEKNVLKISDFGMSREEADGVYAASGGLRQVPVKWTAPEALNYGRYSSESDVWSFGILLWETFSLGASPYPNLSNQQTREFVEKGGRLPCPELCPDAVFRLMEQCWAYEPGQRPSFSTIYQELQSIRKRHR
Property Measured: IC50 (nM)
Note: unit nM is implicit; provide only the numeric part.

Value of measured IC50 for the entry Cc1c(C(=O)Nc2ccc(Oc3ccnc4cc(OCC(C)(C)O)ccc34)c(F)c2)c(=O)n(-c2ccccc2)n1C : 48

###

Procedure Summary: Phase I trial: clinical pharmacokinetics in plasma
Format: in vivo, human
Measurement Context: human, plasma, oral, 30 mg, Single dose day 1, 30 mg, n=1; read-out: Vz/F
Property Measured: Vd/F (L)
Note: unit L is implicit; provide only the numeric part.

Value of measured Vd/F for the entry Cc1c(C(=O)Nc2ccc(Oc3ccnc4cc(OCC(C)(C)O)ccc34)c(F)c2)c(=O)n(-c2ccccc2)n1C : 46.2

###

Procedure Summary: Phase I trial: clinical pharmacokinetics in plasma
Format: in vivo, human
Measurement Context: human, plasma, oral, 150 mg, Single dose day 1, 150 mg, n=4, Geometric Mean (CV%)
Property Measured: AUC(0-inf) (ng·h/mL)
Note: unit ng·h/mL is implicit; provide only the numeric part.

Value of measured AUC(0-inf) for the entry Cc1c(C(=O)Nc2ccc(Oc3ccnc4cc(OCC(C)(C)O)ccc34)c(F)c2)c(=O)n(-c2ccccc2)n1C : 68500

###

System: SNU638
Procedure Summary: Cell proliferation assay (CellTiter-Glo, 72 hours)
Format: cell-based
Measurement Context: Homo sapiens, SNU-638, read-out: IC50 anti-proliferative
Property Measured: IC50 (nM)
Note: unit nM is implicit; provide only the numeric part.

Query Cc1c(C(=O)Nc2ccc(Oc3ccnc4cc(OCC(C)(C)O)ccc34)c(F)c2)c(=O)n(-c2ccccc2)n1C [CT053] on SNU638; IC50 returned: 90

###

Study System: VEGFR2 (Homo sapiens)
Sequence (P35968 20-1356): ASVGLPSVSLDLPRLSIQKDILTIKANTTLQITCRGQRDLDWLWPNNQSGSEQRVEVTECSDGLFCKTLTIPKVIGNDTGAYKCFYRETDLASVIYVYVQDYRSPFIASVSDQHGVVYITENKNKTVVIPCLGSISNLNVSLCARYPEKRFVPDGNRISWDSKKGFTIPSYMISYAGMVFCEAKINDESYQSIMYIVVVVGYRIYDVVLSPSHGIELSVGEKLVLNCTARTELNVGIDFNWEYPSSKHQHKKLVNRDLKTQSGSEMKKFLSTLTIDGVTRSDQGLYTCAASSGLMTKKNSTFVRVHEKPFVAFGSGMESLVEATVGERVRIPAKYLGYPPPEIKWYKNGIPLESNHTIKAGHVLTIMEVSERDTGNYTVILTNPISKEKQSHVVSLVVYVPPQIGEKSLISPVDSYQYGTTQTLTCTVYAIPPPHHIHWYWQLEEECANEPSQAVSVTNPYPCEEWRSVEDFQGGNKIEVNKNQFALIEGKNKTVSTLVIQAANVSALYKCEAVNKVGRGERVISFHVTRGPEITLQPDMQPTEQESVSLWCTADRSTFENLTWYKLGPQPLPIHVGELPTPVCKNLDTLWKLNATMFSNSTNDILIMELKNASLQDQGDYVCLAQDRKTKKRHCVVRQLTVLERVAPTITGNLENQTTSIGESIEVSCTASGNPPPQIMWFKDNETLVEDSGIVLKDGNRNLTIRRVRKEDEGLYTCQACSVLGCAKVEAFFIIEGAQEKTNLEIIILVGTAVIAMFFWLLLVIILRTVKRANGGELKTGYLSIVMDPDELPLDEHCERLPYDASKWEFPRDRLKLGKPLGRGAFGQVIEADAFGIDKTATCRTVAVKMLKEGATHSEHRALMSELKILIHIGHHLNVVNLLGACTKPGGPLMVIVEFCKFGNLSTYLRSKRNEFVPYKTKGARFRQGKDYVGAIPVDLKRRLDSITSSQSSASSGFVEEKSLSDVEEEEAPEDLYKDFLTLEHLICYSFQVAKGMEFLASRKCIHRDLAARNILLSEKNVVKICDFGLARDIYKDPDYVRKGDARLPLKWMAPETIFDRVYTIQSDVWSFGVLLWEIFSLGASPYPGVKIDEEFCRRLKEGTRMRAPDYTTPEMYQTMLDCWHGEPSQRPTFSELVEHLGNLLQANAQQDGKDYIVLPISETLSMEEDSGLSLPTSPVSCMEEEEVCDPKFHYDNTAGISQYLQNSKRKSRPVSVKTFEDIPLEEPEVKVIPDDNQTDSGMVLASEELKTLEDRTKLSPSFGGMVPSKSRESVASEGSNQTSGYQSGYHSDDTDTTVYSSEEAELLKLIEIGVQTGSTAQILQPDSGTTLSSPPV
Procedure Summary: Cellular kinase phosphorylation assay (sandwich ELISA), HUVECs, VEGF-A stimulated
Assay type: cell-based
Set-up: endogenous in cells; host or cells: HUVEC
Measurement Context: printed in Figure 1E; read-out: phospho-VEGF-R2: IC50
Property Measured: pIC50
Scale note: pIC50 = -log10(concentration in M).

Query Cc1c(C(=O)Nc2ccc(Oc3ccnc4cc(OCC(C)(C)O)ccc34)c(F)c2)c(=O)n(-c2ccccc2)n1C on VEGFR2 (Homo sapiens); pIC50 returned: 8.96
